Taken from paper PMC5889410.

Measured MIC, listed per entry for reference.
- Test system: Porphyridium purpureum
- PROTOCOL_TEXT: Microalgal growth assay (chlorophyll a)
- Assay type: cell-based
- TEST_CONTEXT: 120 h, 5 days incubation, 10–0.01 μg/mL tested, read-out: MIC against the growth (G) of microalgae, P. purpureum

{"columns": ["SMILES_STRUCTURE", "UNITS_SYMBOL", "CMP", "MIC"],
 "data": [
  ["COc1ccc(CC(=NO)c2ccc(O)c(O)c2)cc1", "mg/L", ">", 10],
  ["COc1ccc(CC(=NO)c2ccc(O)c(OC)c2)cc1", "mg/L", "=", 10],
  ["COc1cc(OC)cc(C(Cc2ccccc2)=NO)c1", "mg/L", ">", 10],
  ["COc1ccc(C(Cc2ccccc2)=NO)cc1OC", "mg/L", "=", 10],
  ["COc1ccc(C(Cc2ccc(O)cc2)=NO)cc1OC", "mg/L", ">", 10]
]}
